These measurements were taken from PubChem BioAssay (NCI).

assay: NCI Yeast Anticancer Drug Screen. Data for the rad50 strain (AID 155);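 note: 0% = growth of vehicle-only cultures of the same strain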; conditions: S. cerevisiae rad50 strain growth inhibition; at 50.0 µM; active compounds read high
This is part of a sample that, as a whole, favours compounds with a hit. Of some 79,000 tested, about 15% had one in any assay.
reported_endpoint: growth inhibition (%)
One number for each entry, in %.

CCCCCCCCCCCC(=O)O = -0.85
Clc1ccc(-c2nnc(-c3ccc4ccccc4c3)o2)cc1Cl = 3.25
O=C(CO)C(O)C(O)C(O)CO (centres undefined) = 1.65

Your task in this section: give growth inhibition for each listed record.
1. CC(=O)OC1CC2CCCCC21 (centres undefined)
2. O=C1Cc2c(-c3cccs3)cc(-c3ccccc3)nc2-c2ccccc2N1
3. O=C1C(c2[nH]c3ccc(F)cc3c2O)=Nc2ccc(F)cc21
4. Cc1cc(C)cc([N+](=O)[O-])c1
5. O=S1(=O)C=C(Br)CO1

1. 10.6
2. 0
3. 8.7
4. 8.5
5. -4.65

Measured growth inhibition, "CCNc1nnc(-c2nsc3ccccc23)s1" : -12.7

* * *

Test: NCI Yeast Anticancer Drug Screen. Data for the rad50 strain (AID 155);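 note: 0% = growth of vehicle-only cultures of the same strain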
Conditions: S. cerevisiae rad50 strain growth inhibition; at 50.0 µM; active compounds read high
Protocol: Growth inhibition of yeast strains with defined genetic alterations is measured as a screen for potential anti-cancer activity. Selected strains with alterations in DNA damage repair or cell cycle control were exposed to compounds and growth inhibition was measured relative to vehicle treated controls. The strain used in this assay is rad50
About 79,000 compounds went through this panel and 15% of them were active in at least one assay; those are over-represented in the sample as a whole. Activity calls are given as the source filed them. Cut-off read from the data, not from the text of the source: active = growth inhibition above about 70%; inactive = the rest.
Exercise: state measured growth inhibition for each of the molecules provided.

Field: example entries. Status: answers known.
COc1cc(C(C)O)c[n+](Cc2ccccc2)c1 (centres undefined) = -31.6% (inactive)
CONCC(=O)c1ccc(SC)cc1 = -18.4% (inactive)
COC(=O)C1CC(=O)N(CCCl)C1 (centres undefined) = -5.65% (inactive)
CCOC(=O)C(CCC#N)(NC(C)=O)C(=O)OCC = 1.4% (inactive)
Cc1ccc(S(=O)(=O)Oc2cccc(C)c2)cc1 = 1.1% (inactive)
CCSC(SCC)C(SCC)C(OC(=O)c1ccccc1)C(OC(=O)c1ccccc1)C(COC(=O)c1ccccc1)OC(=O)c1ccccc1 (centres undefined) = 9.3% (inactive)
Cc1noc2cccc(O)c12 = 0.95% (inactive)
Cc1ccccc1-c1c(N)nc(N)nc1C(=O)Nc1nccs1 = -26.6% (inactive)

Your task in this section: give growth inhibition for each listed record.
1. N#CC1CNC(N)NC1N (centres undefined)
2. CN(C)S(=O)(=O)N1CCOCC1
3. Cc1ccc(-n2cc(-c3ccc(Cl)cc3)c3c(=N)n(N)cnc32)cc1
4. S=C1N=C(Cl)/C(=C\c2ccco2)N1
5. COc1ccc(C(=O)Nc2ccccc2CCC2CCCCN2C)cc1 (centres undefined)
6. Cc1cccc(I)c1

1: -0.1% (inactive); 2: 9.3% (inactive); 3: -12.2% (inactive); 4: -4.55% (inactive); 5: 29.2% (inactive); 6: -21.4% (inactive)

* * *

experiment: NCI Yeast Anticancer Drug Screen. Data for the sgs1 mgt1 strain (AID 161);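 note: 0% = growth of cultures given vehicle only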; settings: S. cerevisiae sgs1 mgt1 strain, at 50.0 µM, active compounds read high
Compounds without any hit were thinned out: in the full panel of roughly 79,000, 15% have a hit.
reported_endpoint: growth inhibition (%)
Numbers only, in %.

Cc1ccc(-c2nnc(-c3cccc4ccccc34)o2)cc1 = 0.75
Cc1ccc2c(c1)[nH]c(=S)n2C=C(C#N)C#N = -1.1
Cc1cc(NS(=O)(=O)c2ccc(N=[N+]([O-])c3ccc(S(=O)(=O)Nc4cc(C)on4)cc3)cc2)no1 = -6

Your task in this section: give growth inhibition for each listed record.
1. C[n+]1ccn(S(=O)(=O)[O-])c1
2. CCOC(=O)/C=C(\C)c1ccc(Cl)cc1

1: -4.35; 2: -1.6
